Test system: T-47D breast
test method notes: NCI tumour cell line growth inhibition, 48 h
experimental endpoint: TGI

# example entries with known answers
C[C@@H](N)C1CCC(C(=O)Nc2ccncc2)CC1 (stereo partly specified) :: > 100 µM
O=C1Oc2ccccc2C(=O)/C1=C/N1C(=O)/C(=C/c2ccc3c(c2)OCO3)SC1=S :: 31 µM
CC(C)CCSC1=CC(=O)c2ccccc2C1=O :: 3.51 µM

// "Cc1nc2ccccn2c1NC(=O)NNC(=S)Nc1ccc(Br)cc1" : TGI value = > 100 µM

Record CCOC(=O)N1CC2(C)C=CC1C(C(=O)OC)C2 (stereo unspecified) , field TGI: > 100 µM

Recorded result, "Cc1cccc(O)c1-c1nnc(CCCCCCCCc2nnc(-c3c(C)cccc3O)n2N)n1N" , TGI: > 100 µM
